# ASSAY OVERVIEW: yeast display, Sf9 membrane polyspecificity reagent, FACS + sequencing; frameworks hold sequencing errors
REPORTED PROPERTY: polyreactivity (PSR sort gate)

PRIMARY SEQUENCE | REPORTED RESULT
QVQLVESGGGLVQAGGSLRLICAASGSIFINNGMGWYRQAPGKERELVAAINGGDGSTYYADSVKGRFTISRDNAKNTVYLQMNSLKPEDTAVYYCAADQVTYSVEYDYWGQGTQVTVSS | low polyreactivity
QVQLVESGAGLVQAGGSLRLSCAASGRIFDNYVMGWYRQAPGKERELVAAISSGGGTYYADSVKGRFTISRDNAKNTVYLQMNSLKPEDTAVYYCAKRRVYDRSFGRYDYWGQGTKVTVSS | low polyreactivity
QVQLVDSGGGLDQAGGSLRLSCAASGSTFYYNAMGWYRQPPGKARELVARISRSGGSTYADSVKGRFTISRDNAMNTVYLQMNSLKPEDTAVYYCNADADGTPEFTSYSVRYDYWGQGSQVTVSS | low polyreactivity

====

# ASSAY OVERVIEW: yeast display, Sf9 membrane polyspecificity reagent, FACS + sequencing; frameworks hold sequencing errors

PRIMARY SEQUENCE | polyreactivity (PSR sort gate)
QFQLVESGGGLLQAGGSLRLSCAASGRIFVPYVMGWYRQAPGKERELVASISDTDTSTYYADSVKGRFTISRDIAKNIVYLQMNSLKPEDTAVYYWNVDYWGQGTQVTVSS | low polyreactivity
QVQLVESGGGLVQPGGSLRLSCAASGSIVKSYAMGWYRQAPGKERELVAAITWRSGRTYYADSVKGRFTISRDNAKNTVYLQMNSLKPEDTAVYYCAADDTSYYIYSYDYWGQGTQVTVSS | low polyreactivity
QVQLVESGGGLVQAGGSLRLSCAASGRTLGVNAMGWYRQAPGKERELVAAISTRGTTTNYADSVKGRFTISRDNAKNTVYLQMNSLKPEDTAVYYCATRTYRTYPRYDYWGQGTQVTVSS | high polyreactivity
QVQLVESGGGLVQAGGSLRLSCAASGRTFPYYAMGWYRQAPGKERELVAAITGSGGRTYYADSVKGRFTISRDNAKNTVYLQMNRLKPEDTAVYYCATDRGYYTWRYGRNDYWGQGTLVTVSS | high polyreactivity
QVQLVESGGGLVQEGGSLRLSCAASGRIIERSAMGWYRQAPGKERELVAGISISGGGTYYADSVKGRFTISRDKAKNTVYLLMNCLKPEDTSVYYCAGTFPREEYGYWGQGTQVTVSW | low polyreactivity
QVQLVESGGGLVQAGGSLRLSCAASGFTFVVNAMGWYRQAPGKERELVATIRSNGGSTYYADSVKGRFTISRDNAKNTVYLQMNSLKPEDTAVYYCAATATDTKYGYWGQGTQVTVSS | low polyreactivity
QVQLVESGGGLVQAGGSLRLSCAASGRTFWYYTMGWYRQAPGKERELVASITYRGGSTYYADSVKGRFTISRDNAKNTDYLQMNSLKPEDTAVYYCNARYKRYSYDYWGQGTQVTVSS | high polyreactivity
QVQLVESGGGLVQAGGSLRLSCAASGFTFWLYAMGWYRQAPGKERELVAAIDWDCGTYYADSVKGRFTISRDNAKNTVYLQMNSLKPEDTAVYYCAARYRYYYTRYDYWGQGTQVTVSS | high polyreactivity
QVQLVESGGGLVQAGGSLRLSCAASGLTFQWNAMGWYRQATGKERELVAVITDIGDSTYYADSVKGRFTISRDNAKNTVYLQMNSLKPEDTAVYYCAADFGTISIDVYSWMDYWGQGTQVTVSS | low polyreactivity
QVQLVESGGGLVQAGGSLRLSCAASGITFRSYAMGWYRQAPGKDRELVAAISRTGGRTYYADSVKGRFTISRDNAKNTVYLQMNSLKAEDSAVYYCAAGGYSPYSLVGYDYWGQGTQVTVSS | high polyreactivity
QVQLVESGGGLVQAGGSLRLSCAASGYIFRFYTMGWYRQAPGKERELVASITRSGGSTYYADSVKGRFTISRDNAKNTVYLQMNSLKPEDTAVYYCNARKTVGMDYWGQGTQVTVSS | low polyreactivity

From: the nanobody polyreactivity screen of Harvey et al. (2022)
